Consider the following compounds; for each one, report its zone of inhibition at 1000 µg/mL.
# Tested on: Candida albicans
# assay.protocol: Antifungal activity against Candida albicans 155965 at 1 mg/ml after 48 hrs by agar-well diffusion technique
# Assay type: functional
# study.conditions: Candida albicans, 155965, 48 h; read-out: DIZ
Could you give me the number in mm? Just the number is fine.

(Q) Which zone of inhibition at 1000 µg/mL reading was recorded for the compound `CN(C)/C=C(\C#N)C(=O)Nc1scc(-c2ccccc2)c1C#N` ?
(A) 4

(Q) Could you do the same for `N#Cc1c(-c2cccs2)c(C#N)c2[nH]c(=O)c3c(-c4ccccc4)csc3n2c1=N` , please?
(A) 0

(Q) Could you do the same for `N#Cc1c(-c2ccc([N+](=O)[O-])cc2)c(C#N)c2[nH]c(=O)c3c(-c4ccc(Cl)cc4)csc3n2c1=N` , please?
(A) 2.6

(Q) Could you do the same for `CCOC(=O)c1sc(NC(=O)/C(C#N)=N/Nc2ccccc2)c(C#N)c1C` , please?
(A) 0

(Q) Could you do the same for `CN(C)c1ccc(/C=C(\C#N)C(=O)Nc2scc(-c3ccc(Cl)cc3)c2C#N)cc1` , please?
(A) 0

(Q) Could you do the same for `N#Cc1c(-c2ccc(Cl)cc2)c(C#N)c2[nH]c(=O)c3c(-c4ccc(Cl)cc4)csc3n2c1=N` , please?
(A) 0

(Q) Could you do the same for `N#Cc1cc(C#N)c2[nH]c(=O)c3c(-c4ccc(Cl)cc4)csc3n2c1=N` , please?
(A) 0

(Q) Could you do the same for `N#Cc1c(-c2ccc(Cl)cc2)c(C#N)c2[nH]c(=O)c3c(-c4ccccc4)csc3n2c1=N` , please?
(A) 0

(Q) Could you do the same for `Cc1cccc(-c2ccc(C(=O)Nc3scc(-c4ccccc4)c3C#N)c(=O)[nH]2)n1` , please?
(A) 0

(Q) Could you do the same for `N#Cc1c(-c2ccc(Cl)cc2)csc1NC(=O)c1cn[nH]c1N` , please?
(A) 6.6

(Q) Could you do the same for `CN(C)/C=C(\C#N)C(=O)Nc1scc(-c2ccc(Cl)cc2)c1C#N` , please?
(A) 0

====

Consider the following molecules; for each one, report its zone of inhibition at 1000 µg/mL.
# System: Candida albicans
# assay.protocol: Antifungal activity against Candida albicans 155965 at 1 mg/ml after 48 hrs by agar-well diffusion technique
# Assay type: functional
# study.conditions: Candida albicans, 155965, 48 h; read-out: DIZ
Could you give me the number in mm? Just the number is fine.

(Q) Which zone of inhibition at 1000 µg/mL reading was recorded for the molecule `COc1ccc(-c2c(C#N)c(=N)n3c([nH]c(=O)c4c(-c5ccccc5)csc43)c2C#N)cc1` ?
(A) 0

(Q) Could you do the same for `N#Cc1cc(C#N)c2[nH]c(=O)c3c(-c4ccccc4)csc3n2c1=N` , please?
(A) 2.6

(Q) Could you do the same for `N#CCC(=O)Nc1scc(-c2ccc(Cl)cc2)c1C#N` , please?
(A) 0

(Q) Could you do the same for `CN(C)c1ccc(/C=C(\C#N)C(=O)Nc2scc(-c3ccccc3)c2C#N)cc1` , please?
(A) 0

(Q) Could you do the same for `N#CCC(=O)Nc1scc(-c2ccccc2)c1C#N` , please?
(A) 4

(Q) Could you do the same for `N#Cc1c(-c2cccs2)c(C#N)c2[nH]c(=O)c3c(-c4ccc(Cl)cc4)csc3n2c1=N` , please?
(A) 12

(Q) Could you do the same for `N#Cc1c(-c2ccc(Cl)cc2)csc1N` , please?
(A) 2.6

(Q) Could you do the same for `COc1ccc(-c2c(C#N)c(=N)n3c([nH]c(=O)c4c(-c5ccc(Cl)cc5)csc43)c2C#N)cc1` , please?
(A) 0

(Q) Could you do the same for `N#Cc1c(-c2ccccc2)csc1NC(=O)c1ccc(-c2cccs2)[nH]c1=O` , please?
(A) 0

(Q) Could you do the same for `N#Cc1c(-c2ccccc2)csc1NC(=O)c1cc2ccccc2[nH]c1=O` , please?
(A) 16

(Q) Could you do the same for `N#Cc1c(-c2ccccc2)c(C#N)c2[nH]c(=O)c3c(-c4ccc(Cl)cc4)csc3n2c1=N` , please?
(A) 0

(Q) Could you do the same for `CCOC(=O)c1sc(NC(=O)CC#N)c(C#N)c1C` , please?
(A) 0

(Q) Could you do the same for `CCOC(=O)c1sc2c(c1C)c(=O)[nH]c1c(C#N)c(-c3ccc(Cl)cc3)c(C#N)c(=N)n12` , please?
(A) 0

(Q) Could you do the same for `Cc1ccc(-c2c(C#N)c(=N)n3c([nH]c(=O)c4c(-c5ccc(Cl)cc5)csc43)c2C#N)cc1` , please?
(A) 0

(Q) Could you do the same for `N#Cc1c(-c2ccccc2)csc1NC(=O)c1cn[nH]c1N` , please?
(A) 4

(Q) Could you do the same for `N#Cc1c(-c2ccccc2)csc1N` , please?
(A) 18

(Q) Could you do the same for `N#Cc1c(-c2ccccc2)csc1NC(=O)c1ccc(-c2ccccc2)[nH]c1=O` , please?
(A) 0

(Q) Could you do the same for `Cc1ccc(-c2c(C#N)c(=N)n3c([nH]c(=O)c4c(-c5ccccc5)csc43)c2C#N)cc1` , please?
(A) 0

(Q) Could you do the same for `N#Cc1c(-c2ccc([N+](=O)[O-])cc2)c(C#N)c2[nH]c(=O)c3c(-c4ccccc4)csc3n2c1=N` , please?
(A) 0

(Q) Could you do the same for `N#Cc1c(-c2ccccc2)c(C#N)c2[nH]c(=O)c3c(-c4ccccc4)csc3n2c1=N` , please?
(A) 2

Source of measurements: ChEMBL document CHEMBL2021764
